Measured kon accompanies every entry in the list below.
- Target Or Test System: T1, pCD163-SRCR4-7-huFc (porcine, UniProt Q2VL90 372-818, limits assumed)
- T1 construct: also called pCD163:SRCR4-7-Fc; pCD163-SRCR4-7-Fc; not shown: human Fc (huFc)
- T1 sequence (Q2VL90 372-818 limits assumed): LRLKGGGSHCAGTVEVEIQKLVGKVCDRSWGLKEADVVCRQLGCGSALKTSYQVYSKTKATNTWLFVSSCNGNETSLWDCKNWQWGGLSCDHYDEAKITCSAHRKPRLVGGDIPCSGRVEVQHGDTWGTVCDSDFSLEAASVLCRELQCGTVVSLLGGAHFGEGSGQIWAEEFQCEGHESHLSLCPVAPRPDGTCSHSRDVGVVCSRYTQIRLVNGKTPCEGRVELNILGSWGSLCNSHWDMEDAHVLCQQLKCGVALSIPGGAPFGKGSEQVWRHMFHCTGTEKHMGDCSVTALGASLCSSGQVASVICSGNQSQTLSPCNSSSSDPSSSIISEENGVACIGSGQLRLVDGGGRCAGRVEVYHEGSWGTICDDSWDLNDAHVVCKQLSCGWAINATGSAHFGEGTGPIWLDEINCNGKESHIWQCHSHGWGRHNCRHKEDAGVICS
- Assay: SPR (Biacore 3000), antigen amine-coupled on CM5, VHH injected, pH 7.4
Express it in M⁻¹ s⁻¹; write the number only.

Solved cases below.
Binder	kon (M⁻¹ s⁻¹)
VHH 017 (3D03) (VHH, Llama single domain antibody; also called 29(#17); VHCDR3 29(#17); not shown: tags: c-myc tag in periplasmic extract (ELISA, FACS); FLAG and His tags in purified VHH (SPR, infection assays)) VHH: QLQLVESGGGLVQPGGSLRLSCAASGFTLDDYTIGWFRQAPGKEREGVSCINSITSNTYYADSVKGRFTISRDNAKNTVYLQMNSLTAEDTAIYYCAADSGLFSGSSCLKYRAMRFGSWGQGTQVTVSS	153000
VHH 023 (4E10) (VHH, Llama single domain antibody; also called 70(#23); VHCDR3 70(#23); not shown: tags: c-myc tag in periplasmic extract (ELISA, FACS); FLAG and His tags in purified VHH (SPR, infection assays)) VHH: QVQLVESGGGLVQAGGSLRLSCVASSRTSSTYAMGWFRQGPGKERDFVAIISFGGTFYADSVKGRFTISRDNAKNTVYLQMNSLKPEDTAVYYCAAGRTLSKRADSYASWGQGTQVTVSS	4.96e+06

Suppose we examine the binder VHH 020 (3H11) (VHH, Llama single domain antibody; also called 48(#20); VHCDR3 48(#20); not shown: tags: c-myc tag in periplasmic extract (ELISA, FACS); FLAG and His tags in purified VHH (SPR, infection assays)) VHH: QVQLQESGGGLVQVGGSLRLSCVASGRTPSRYVMGWFRQAPGQEREFVAGIAWSGRAPYADSVKGRFVISRDSAKNTVYLQMNSLKSEDTGVYYCAGGEGAILWTTPGAYNYWGQGTQVTVSS ; what kon value has been reported?
462000

Suppose we examine the binder VHH 002 (1B04) (VHH, Llama single domain antibody; also called 76(#2); VHCDR3 76(#2); not shown: tags: c-myc tag in periplasmic extract (ELISA, FACS); FLAG and His tags in purified VHH (SPR, infection assays)) VHH: QVQLVESGGGLVQAGGSLRLSCAASGLTFVTYSMGWFRQAPGKEREFVAAHRWSGSAYYAEHADSVEGRFTISRDYAKNMLYLQMNSLKHEDTAVYYCAAGVGSAAQYRYWGRGTQVTVSS ; what kon value has been reported?
787000
